# Target: Mitogen-activated protein kinase kinase kinase 14 (Homo sapiens, UniProt Q99558)
# Sequence (Q99558 whole entry): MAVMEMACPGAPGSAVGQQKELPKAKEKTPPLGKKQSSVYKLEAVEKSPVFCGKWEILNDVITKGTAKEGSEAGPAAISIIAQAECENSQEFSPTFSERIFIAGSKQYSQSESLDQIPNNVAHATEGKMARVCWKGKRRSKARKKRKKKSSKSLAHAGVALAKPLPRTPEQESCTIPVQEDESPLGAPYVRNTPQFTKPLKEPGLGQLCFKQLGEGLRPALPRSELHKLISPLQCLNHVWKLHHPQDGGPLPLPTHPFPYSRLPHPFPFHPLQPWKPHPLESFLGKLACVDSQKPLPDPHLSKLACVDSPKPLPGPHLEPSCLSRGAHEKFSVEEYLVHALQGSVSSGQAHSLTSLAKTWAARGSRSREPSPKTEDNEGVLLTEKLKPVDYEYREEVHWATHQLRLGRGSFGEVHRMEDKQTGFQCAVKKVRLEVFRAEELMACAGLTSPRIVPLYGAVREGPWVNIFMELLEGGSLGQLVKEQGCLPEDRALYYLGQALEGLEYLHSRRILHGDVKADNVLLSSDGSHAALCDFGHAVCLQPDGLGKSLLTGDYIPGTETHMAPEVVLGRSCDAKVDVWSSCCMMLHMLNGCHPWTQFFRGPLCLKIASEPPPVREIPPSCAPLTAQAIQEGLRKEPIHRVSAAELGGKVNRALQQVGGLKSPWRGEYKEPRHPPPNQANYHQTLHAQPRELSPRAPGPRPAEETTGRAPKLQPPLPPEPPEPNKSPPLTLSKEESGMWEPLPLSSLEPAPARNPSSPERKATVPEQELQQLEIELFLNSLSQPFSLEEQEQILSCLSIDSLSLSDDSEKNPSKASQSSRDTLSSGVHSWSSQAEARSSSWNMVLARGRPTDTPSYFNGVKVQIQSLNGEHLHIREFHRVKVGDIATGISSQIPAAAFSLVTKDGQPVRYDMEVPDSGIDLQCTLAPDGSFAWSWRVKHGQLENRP
# Assay Notes: Inhibition of NIK (unknown origin) autophosphorylation after 1 hr by chemiluminescent assay
pIC50: −log10 of the molar value.
Property Measured: pIC50

# get_value(readout='pIC50', item= Cc1cnc(N)nc1-c1c(C)[nH]c2ccc(Cl)cc12 )
4.52

Note, next up: Nc1nccc(-c2c[nH]c3ccc(Cl)cc23)n1
6.82

Note, next up: Nc1nccc(N2CCc3ccc(Br)cc32)n1
6.26

[1] Cc1ccc2nc(C)c(-c3ccnc(N)n3)n2c1
[2] Nc1nccc(-c2cnc3ccc(Br)cn23)n1
Between the entries labelled 1 and 2 , which has a larger pIC50 value on record? Pick one and reply with its label.
2
